All values here come from patent US4401660A.

# minimal inhibitory concentration (MIC) annotations
test system: Staphylococcus aureus X400; assay: MIC, standard agar-dilution assay (Table II); type: cell-based; set-up: unit not given here; conditions: Staphylococcus aureus X400, methicillin-resistant strain
recorded_metric: minimal inhibitory concentration (MIC)

INSERT INTO assay_data (molecule, recorded_metric, endpoint_value) VALUES
  ('CCC1OC(=O)CC(O)C(C)C(OC2OC(C)C(O)C(N(C)C)C2O)C(CC=O)CC(C)C(=O)C=CC(C)=CC1COC(C)=O (centres unmarked) [Compound 13, 23-O-Acetyl-OMT]', 'minimal inhibitory concentration (MIC)', 0.5),
  ('CCC1OC(=O)CC(O)C(C)C(OC2OC(C)C(OC(C)=O)C(N(C)C)C2OC(C)=O)C(CC=O)CC(C)C(=O)C=CC(C)=CC1COC(=O)Cc1cccnc1 (centres unmarked) [Compound 43]', 'minimal inhibitory concentration (MIC)', 0.5),
  ('CCC(=O)OCC1C=C(C)C=CC(=O)C(C)CC(CC=O)C(OC2OC(C)C(O)C(N(C)C)C2OC(C)=O)C(C)C(O)CC(=O)OC1CC (centres unmarked) [Compound 12, 2''-O-Acetyl-23-O-propionyl-OMT]', 'minimal inhibitory concentration (MIC)', 0.5),
  ('CCC1OC(=O)CC(O)C(C)C(OC2OC(C)C(O)C(N(C)C)C2OC(=O)Cc2ccccc2)C(CC=O)CC(C)C(=O)C=CC(C)=CC1COC(=O)Cc1ccccc1 (centres unmarked) [Compound 53, 2'',23-Di-O-Phenylacetyl-OMT]', 'minimal inhibitory concentration (MIC)', 0.25),
  ('CCCCC(=O)OCC1C=C(C)C=CC(=O)C(C)CC(CC=O)C(OC2OC(C)C(OC(C)=O)C(N(C)C)C2OC(C)=O)C(C)C(O)CC(=O)OC1CC (centres unmarked) [Compound 19]', 'minimal inhibitory concentration (MIC)', 0.5);
